For each entry below, report its TGI value.
test system: UACC-257 melanoma; assay: NCI tumour cell line growth inhibition, 48 h

What does the record list as TGI for `CCC(=C(c1ccc(OCCCN(C)C)cc1)c1ccc(OCCCN(C)C)cc1)c1ccc(Cl)cc1` ? 2.24 µM

What does the record list as TGI for `Cc1csc(-c2cn(C)c3c2C(=O)C(N)=CC3=O)n1` ? 32.6 µM

What does the record list as TGI for `Cc1cc(Nc2nc(SCc3ccc(C(=O)Nc4ccc(F)cc4N)cc3)nn3cccc23)n[nH]1` ? 32.4 µM

What does the record list as TGI for Cc1ccc(S(=O)(=O)N/N=C(\c2nc3ccc([N+](=O)[O-])cc3[nH]c2=O)C(O)c2ccccc2Cl)cc1 (stereo not given) ? > 100 µM

What does the record list as TGI for `CN(C)Cc1c[nH]c2c(NCCN)c3c(c(NCCN)c12)C(=O)c1ccccc1C3=O` ? > 23.8 µM

What does the record list as TGI for `C/C=C/C=C/c1nc(C#N)c(N)o1` ? > 100 µM

What does the record list as TGI for `C=CCOC(=O)CC[N+]1=CCC(c2ccccc2)(c2ccccc2)O1` ? > 100 µM

What does the record list as TGI for `O=c1c2c3c(sc2n2c(-c4cc(-c5ccccc5)nn4-c4ccccc4)nnc2n1Cc1ccccc1)CCCC3` ? > 100 µM

What does the record list as TGI for `BrC/C=C/C[P+](c1ccccc1)(c1ccccc1)c1ccccc1` ? > 100 µM

What does the record list as TGI for `COc1ccc(Nc2nc3ccccc3nc2-c2cccs2)cc1` ? > 100 µM

What does the record list as TGI for O=C(O)CCC(NC(=S)S)C(=O)O.[Na+].[Zn+2] (stereo not given) ? > 50 µM

What does the record list as TGI for CCOC(=O)c1c(-c2ccc(OC)cc2)c(C#N)c(=S)n(C2OC(COC(C)=O)C(OC(C)=O)C(OC(C)=O)C2OC(C)=O)c1C (stereo not given) ? > 100 µM

What does the record list as TGI for `CN(C)c1nc(=NCc2ccccc2)ss1` ? > 10 µM

What does the record list as TGI for `O=S(=O)(CCOCc1ccc(-c2ccc3ncnc(Nc4ccc(OCc5cccc(F)c5)c(Cl)c4)c3c2)o1)c1ccccc1` ? > 25 µM

What does the record list as TGI for `O=C1C[C@H](Sc2ccccc2)C2(OCCO2)[C@@H](Sc2ccccc2)C1` ? 4.51 µM

What does the record list as TGI for `CN(C)C(=S)S` ? > 100 µM

What does the record list as TGI for `CN(C)c1ccc(C=C2N=C(c3ccccc3)N(c3cc(C(=O)c4ccccc4)ccc3N3C(=O)/C(=C/c4ccc(N(C)C)cc4)N=C3c3ccccc3)C2=O)cc1` ? > 100 µM

What does the record list as TGI for `Cn1cc(-c2csc(-c3cn(C)c4ccccc34)n2)c2cnccc21` ? 3.5 µM

What does the record list as TGI for `N#CCCN(CCC#N)c1ccc(/C=C2\N=C(c3ccccc3)N(c3ccc(Cl)cc3)C2=O)cc1` ? > 100 µM

What does the record list as TGI for `Cc1cc2[nH]c3[nH]c(=O)[nH]c(=O)c3c2cc1C` ? > 100 µM

* * *

system: CAKI-1 renal; test: NCI tumour cell line growth inhibition, 48 h
For each entry below, report its TGI value.

What does the record list as TGI for `Cl[Si]1(Cl)Oc2ccccc2O[Si](Cl)(Cl)Oc2ccccc2O1` ? 97.5 µM

What does the record list as TGI for CC(=O)N(C(C)=O)C1=C2c3ccccc3N(S(=O)(=O)c3ccccc3)C2n2c(=O)n(-c3ccccc3)c(=O)n2C1 (stereo not given) ? > 100 µM

What does the record list as TGI for `Cc1cc(=O)c2c([nH]1)NS(=O)(=O)NC2=O` ? > 100 µM

What does the record list as TGI for `CN(C)Cc1cc(C(=O)/C=C/c2ccc(O)cc2)cc(CN(C)C)c1O` ? > 100 µM

What does the record list as TGI for COC1OC(C)C(OCc2ccccc2)C(OS(=O)(=O)c2ccc(C)cc2)C1OS(=O)(=O)c1ccc(C)cc1 (stereo not given) ? > 100 µM

* * *

test system: NCI-H226 lung; test: NCI tumour cell line growth inhibition, 48 h
metric: TGI

What does the record list as TGI for CCN(CCO)CC1COc2ccccc2O1 (configuration not stated) ? > 100 µM

What does the record list as TGI for `O=C(c1ccc2ccccc2c1)c1c(C(F)(F)F)n([O-])c2ccc(Cl)cc2[n+]1=O` ? 3.56 µM

What does the record list as TGI for `COc1ccc(C#CC(=O)O)c(OC)c1` ? > 100 µM

What does the record list as TGI for `N#CC(C#N)=CNC(=S)c1ccncc1` ? > 100 µM

What does the record list as TGI for CC(CC(=O)Nc1ccc(NC(=O)CC(C)N=NC(N)=S)cc1)N=NC(N)=S (configuration not stated) ? > 100 µM

What does the record list as TGI for `Cc1c2c(n(CCc3ccc(Cl)cc3)c1C)NN=C(C#N)S2(=O)=O` ? > 100 µM

What does the record list as TGI for `O=C(c1cc2ccccc2cc1O)N1CCCCC1` ? 85.9 µM

What does the record list as TGI for `Cc1ccccc1Nc1nc2c(s1)C(=O)c1ccccc1C2=O` ? 32.8 µM

What does the record list as TGI for `NC(=O)/C=C/C(=O)O` ? > 5000 µM

What does the record list as TGI for `COc1ccc(Nc2nc3ccccc3nc2-c2cccs2)cc1` ? > 100 µM

What does the record list as TGI for `CSc1cc(Cl)c(C)cc1S(=O)(=O)NC(=O)NNc1ccc(Cl)cc1` ? > 100 µM

What does the record list as TGI for `COc1ccc2cc3c4cc5c(cc4cc[n+]3cc2c1OC)OCO5` ? > 100 µM

What does the record list as TGI for `C=CCNC(=S)/N=C/c1c(O)c2ccccc2oc1=O` ? > 100 µM

What does the record list as TGI for `C=CCO/N=C/c1cc(NC(=S)c2ccoc2C)ccc1Cl` ? 41.3 µM

What does the record list as TGI for `COc1ccc(/C=C2/CCc3cc4ccc(OC)cc4[o+]c32)c(O)c1` ? 25.7 µM

What does the record list as TGI for `Cn1c2ccccc2c2c(=O)c3ccccc3[nH]c21` ? > 100 µM

What does the record list as TGI for `O=C(CNc1ccccc1Cl)Nn1c(-c2ccccc2)nc2ccccc2c1=O` ? 81.1 µM

What does the record list as TGI for COc1ccc(C2(CC(C)O)SCCCS2)cc1 (configuration not stated) ? > 100 µM

What does the record list as TGI for O=C1C2=C(c3ccccc31)C(c1ccccc1Cl)N1C(=O)CCSC1=N2 (configuration not stated) ? > 100 µM

What does the record list as TGI for `NC(=O)c1cccc(Nc2nccc(Nc3cccc(F)c3)n2)c1` ? > 21.7 µM

What does the record list as TGI for `COc1cc([N+](=O)[O-])c(OC)cc1-c1nc2sc(Cl)cn2c1/C=N/Nc1ccccn1` ? 48.8 µM

What does the record list as TGI for `Nc1c(-c2cccc3ccccc23)c2ccc([N+](=O)[O-])cc2c(=O)n1-c1nc2ccccc2s1` ? 16.3 µM

* * *

For each entry below, report its TGI value.
system: MDA-N; assay: NCI tumour cell line growth inhibition, 48 h
Report only the number, with the unit µM understood.

What does the record list as TGI for `CN(C)CCCN1C(=S)N(CCCN(C)C)c2c3cc(O)ccc3nc3c([N+](=O)[O-])ccc1c23` ? 34.9

What does the record list as TGI for `C(=N\NC1=NCCCN1)/c1ccc2ccccc2c1` ? 22.5

What does the record list as TGI for COc1cc(C2CC(C)(Nc3ccccc3)Oc3cc4c(cc32)OCO4)cc(OC)c1OC (stereo not given) ? 0.183

What does the record list as TGI for COc1ccc(C(OCC2OC(n3cc(C)c(=O)[nH]c3=O)CC2n2cc(Cn3cc(F)c(=O)[nH]c3=O)nn2)(c2ccccc2)c2ccccc2)cc1 (stereo not given) ? 3.53

* * *

For each entry below, report its TGI value.
test system: HCT-15 colon; assay: NCI tumour cell line growth inhibition, 48 h

What does the record list as TGI for `Cc1c2c(n(CCc3ccc(Cl)cc3)c1C)NN=C(C#N)S2(=O)=O` ? > 100 µM

What does the record list as TGI for COc1cccc(/C=C2\CCC(C)(CN(C)C)C2=O)c1 (stereo not given) ? > 100 µM

What does the record list as TGI for `Cn1c([N+](=O)[O-])cnc1/C=C1\Oc2cc(Cl)ccc2C1=O` ? 1.05 µM

What does the record list as TGI for `O=c1c(Cl)c(Cl)cnn1CCc1ccncc1` ? 31.3 µM

What does the record list as TGI for `COc1cc(NS(C)(=O)=O)ccc1N1Cc2cnc3ccc4[nH]c(C)cc1c4c23` ? > 100 µM

What does the record list as TGI for `Nc1c(-c2cccc3ccccc23)c2ccc([N+](=O)[O-])cc2c(=O)n1-c1nc2ccccc2s1` ? > 48 µM

What does the record list as TGI for O=C1CN2C(c3ccccc3)=NN(c3ccc([N+](=O)[O-])cc3)C2(c2ccccc2)c2cc(Cl)ccc2N1CC1CC1 (stereo not given) ? > 100 µM

What does the record list as TGI for `O=C/C(=C(/Cl)c1ccc(O)cc1)c1ccccc1` ? 46 µM

What does the record list as TGI for `C=CCOC(=O)CC[N+]1=CCC(c2ccccc2)(c2ccccc2)O1` ? > 100 µM

What does the record list as TGI for `Oc1ccccc1/C=N/c1nc2cc3sc(/N=C/c4ccccc4O)nc3cc2s1` ? > 100 µM

What does the record list as TGI for `COc1ccc2nc3cc(Cl)ccc3c(NCCCNCCCNc3c4ccc(Cl)cc4nc4ccc(OC)cc34)c2c1` ? 1.06 µM

What does the record list as TGI for CCOC(=O)c1c(-c2ccc(OC)cc2)c(C#N)c(=S)n(C2OC(COC(C)=O)C(OC(C)=O)C(OC(C)=O)C2OC(C)=O)c1C (stereo not given) ? > 100 µM

What does the record list as TGI for `Brc1cccc(Nc2nc(-c3cccs3)nc3ccc(Br)cc23)c1` ? > 100 µM

What does the record list as TGI for COc1cc(C2CC(C)(Nc3ccccc3)Oc3cc4c(cc32)OCO4)cc(OC)c1OC (stereo not given) ? > 100 µM

What does the record list as TGI for `Cc1c(C(=O)CSc2nc3ccccc3c(=O)n2-c2ccccc2)c(=O)n(-c2ccccc2)n1C` ? > 100 µM

What does the record list as TGI for `COC(=O)[C@]12CC[C@H]3CN(C(=O)OCc4ccccc4)[C@H]([C@H]31)[C@H](c1ccco1)N2S(=O)(=O)c1ccc(C)cc1` ? 30.8 µM

What does the record list as TGI for CCCNC(=O)CCC(C)[C@H]1CCC2C3C(C[C@H](OC(C)=O)[C@@]21C)[C@@]1(C)CCC2(C[C@H]1C[C@H]3OC(C)=O)OOC1(CCC(C)CC1)OO2 (stereo not given in full) ? > 100 µM

What does the record list as TGI for `CC(C)COP(=O)(OCC(C)C)C(NS(=O)(=O)c1ccccc1)(C(F)(F)F)C(F)(F)F` ? 23.8 µM

What does the record list as TGI for `CSc1cc(Cl)c(C)cc1S(=O)(=O)NC(=O)NNc1ccc(Cl)cc1` ? > 100 µM

What does the record list as TGI for `CCSc1nc(N)c2cn[nH]c2n1` ? > 100 µM

Source listed as PubChem BioAssay (NCI).
